Test: Plasma pharmacokinetics of pamiparib (LC-MS/MS, non-compartmental)
Set-up: species or system human
Settings: human, in vivo, 5 mg, AUC0-9, Single Dose (Cycle 1 Day 1)
Procedure: Patients in the dose-escalation phase received a single oral dose of pamiparib on day 1 of cycle 1 to collect samples for single-dose PK assessment over 48 h, followed by continuous daily doses (BID and QD) starting on day 3 of cycle 1 as a 21-day period of repeated drug administration (days 3–23), and then continued every 21-day cycle thereafter until disease progression, toxicity, or patient withdrawal. Eight BID dose levels (2.5, 5, 10, 20, 40, 60, 80, 120 mg) were administered (Fig. 1). […]
MEASUREMENT TYPE: AUC(0-t)

C[C@]12CCCN1CC1=NNC(=O)c3cc(F)cc4[nH]c2c1c34: 1100 ng·h/mL

Data provenance: paper PMC8854719
